B1: CPEB3 Ribozyme (parent)
chain: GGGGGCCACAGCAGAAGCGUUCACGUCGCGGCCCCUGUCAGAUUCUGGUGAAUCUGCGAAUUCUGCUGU

Variants of: B1
EXPERIMENT_SUMMARY: self-cleavage, relative activity (ratio to wild type); higher = more cleavage; co-transcriptional
Decide using self-cleavage: a value greater than or equal to 0.7 is Y, a smaller one is N.

[[record]]
variant_designation = "U49A A59U"
cat = "Y"

[[record]]
variant_designation = "C32A C34A"
cat = "N"

[[record]]
variant_designation = "A40G U44C"
cat = "N"

[[record]]
variant_designation = "U44C C66G"
cat = "N"

[[record]]
variant_designation = "C24G G58C"
cat = "N"

[[record]]
variant_designation = "U21A U43A"
cat = "Y"

[[record]]
variant_designation = "U44G G47U"
cat = "Y"

[[record]]
variant_designation = "G5C U43C"
cat = "N"

[[record]]
variant_designation = "G11A A42C"
cat = "N"

[[record]]
variant_designation = "U38C U55A"
cat = "Y"

[[record]]
variant_designation = "C63G U69A"
cat = "Y"

[[record]]
variant_designation = "G5C G37A"
cat = "N"

[[record]]
variant_designation = "C12A G56U"
cat = "N"

[[record]]
variant_designation = "A16G C33U"
cat = "Y"

[[record]]
variant_designation = "G31A U38C"
cat = "Y"

[[record]]
variant_designation = "G50C C66U"
cat = "Y"

[[record]]
variant_designation = "A8G A60U"
cat = "N"

[[record]]
variant_designation = "A10U G14A"
cat = "N"

[[record]]
variant_designation = "G1C U43G"
cat = "N"

[[record]]
variant_designation = "G4C U62C"
cat = "N"

[[record]]
variant_designation = "C7U A52C"
cat = "Y"

[[record]]
variant_designation = "G2A G19U"
cat = "N"

[[record]]
variant_designation = "U20C C33G"
cat = "N"

[[record]]
variant_designation = "G5U C7G"
cat = "N"

[[record]]
variant_designation = "C45G U69A"
cat = "Y"

[[record]]
variant_designation = "G25A G58A"
cat = "N"

[[record]]
variant_designation = "A23U G25U"
cat = "N"

[[record]]
variant_designation = "U36C C57G"
cat = "N"

[[record]]
variant_designation = "G11U C35U"
cat = "Y"

[[record]]
variant_designation = "U38A C39U"
cat = "Y"

[[record]]
variant_designation = "G50A U61C"
cat = "Y"

[[record]]
variant_designation = "C6A A10C"
cat = "N"

[[record]]
variant_designation = "U21G A52U"
cat = "N"

[[record]]
variant_designation = "A15U G19C"
cat = "N"

[[record]]
variant_designation = "C7A G28C"
cat = "N"

[[record]]
variant_designation = "U21A A40U"
cat = "Y"

[[record]]
variant_designation = "G19C G30A"
cat = "N"

[[record]]
variant_designation = "C35G A42G"
cat = "N"

[[record]]
variant_designation = "U36G G50U"
cat = "N"

[[record]]
variant_designation = "C12U C18G"
cat = "N"

[[record]]
variant_designation = "C24G G56U"
cat = "N"

[[record]]
variant_designation = "G31U U61G"
cat = "N"

[[record]]
variant_designation = "A13G U67C"
cat = "Y"

[[record]]
variant_designation = "G41C A51C"
cat = "N"

[[record]]
variant_designation = "U20A G30A"
cat = "N"


These measurements were taken from the RNAGym collection of RNA variant scans (doi:10.7554/elife.80360).
